target: T1, human serum albumin (HSA), full length (human, UniProt P02768 25-609); test: SPR off-rate ratio to parent ADX_7016_A01, HSA, 25 C
T1 construct: mature; Immobilized on CM5 chip (SPR) or coated on plates (ELISA)
T1 sequence (P02768 25-609): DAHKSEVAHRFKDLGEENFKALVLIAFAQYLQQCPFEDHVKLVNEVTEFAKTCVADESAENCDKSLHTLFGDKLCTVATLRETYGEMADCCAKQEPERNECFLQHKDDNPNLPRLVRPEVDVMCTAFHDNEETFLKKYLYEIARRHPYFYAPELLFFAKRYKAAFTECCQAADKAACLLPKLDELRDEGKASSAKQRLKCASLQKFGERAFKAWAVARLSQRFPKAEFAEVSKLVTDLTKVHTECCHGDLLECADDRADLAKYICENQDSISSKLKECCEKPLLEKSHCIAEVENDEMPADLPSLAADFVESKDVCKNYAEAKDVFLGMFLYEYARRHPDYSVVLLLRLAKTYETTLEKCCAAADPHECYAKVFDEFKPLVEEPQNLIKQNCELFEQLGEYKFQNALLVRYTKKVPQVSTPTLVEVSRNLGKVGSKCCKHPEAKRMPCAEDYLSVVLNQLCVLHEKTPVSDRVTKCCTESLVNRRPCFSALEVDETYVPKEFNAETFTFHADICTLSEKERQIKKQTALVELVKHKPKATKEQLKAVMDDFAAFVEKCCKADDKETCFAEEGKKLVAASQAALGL
MEASUREMENT TYPE: HSA kd/Parent kd

BINDER	REPORTED MEASUREMENT
ADX_7016_E02 (L38T) (designed binder, Full His6-tagged entry; also called 6727_E08) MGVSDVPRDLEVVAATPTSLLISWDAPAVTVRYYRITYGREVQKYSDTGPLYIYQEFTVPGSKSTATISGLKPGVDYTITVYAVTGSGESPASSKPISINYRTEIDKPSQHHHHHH	30.3
ADX_6727_G04 (Y44S/K85S) (designed binder, Full His6-tagged entry) MGVSDVPRDLEVVAATPTSLLISWDAPAVTVRYYRITYGREVQKYSDLGPLYISQEFTVPGSKSTATISGLKPGVDYTITVYAVTGSGESPASSSPISINYRTEIDKPSQHHHHHH	6.6
ADX_6727_H10 (L41S/K85S) (designed binder, Full His6-tagged entry) MGVSDVPRDLEVVAATPTSLLISWDAPAVTVRYYRITYGREVQKYSDLGPSYIYQEFTVPGSKSTATISGLKPGVDYTITVYAVTGSGESPASSSPISINYRTEIDKPSQHHHHHH	32
ADX_6727_H06 (Y44Q/K85T) (designed binder, Full His6-tagged entry) MGVSDVPRDLEVVAATPTSLLISWDAPAVTVRYYRITYGREVQKYSDLGPLYIQQEFTVPGSKSTATISGLKPGVDYTITVYAVTGSGESPASSTPISINYRTEIDKPSQHHHHHH	52.7

The values you see were collected from patent US20180258158A1.
